System: HT-22
Experimental protocol: Neuroprotective activity in mouse HT22 cells assessed as protection against glutamate-induced toxicity at 1 uM after 24 hrs by MTT assay in presence of GW-9662
Type: functional, cell-based
Active and inactive are the calls of the source. No cut-off for these calls is given here.
Give your call using only these classes: 1 for active, -1 for inactive

# example entries with known answers
Q. Each compound tested received a call. Report the one for Cc1ccc(CN(Cc2ccc(O)c3ncccc23)Cc2ccc(O)c3ncccc23)cc1 .
A. -1

Q. Each compound tested received a call. Report the one for Oc1ccc(CN(Cc2cccc(C(F)(F)F)c2)Cc2ccc(O)c3ncccc23)c2cccnc12 .
A. -1

Q. Each compound tested received a call. Report the one for Oc1ccc(CN(Cc2cccs2)Cc2ccc(O)c3ncccc23)c2cccnc12 .
A. -1

Q. Each compound tested received a call. Report the one for COc1cc(/C=C/c2cc(/C=C/c3ccc(O)c(OC)c3)n(-c3ccccc3)n2)ccc1O .
A. 1

Q. Each compound tested received a call. Report the one for O=C(Nc1ccccc1)c1cc([N+](=O)[O-])ccc1Cl .
A. -1

Now, please, on to the next compound.
Q. Each compound tested received a call. Report the one for Oc1ccc(CN(Cc2ccc(C(F)(F)F)cc2)Cc2ccc(O)c3ncccc23)c2cccnc12 .
A. -1

* * *

System: HT-22
Experimental protocol: Inhibition of glutamate-induced decrease in GSH level in mouse HT22 cells at 1 uM after 24 hrs
Type: functional, cell-based
The source made the active and inactive calls. No cut-off for these calls is given here.
Give your call using only these classes: 1 (active), -1 (inactive)

Q. Each compound tested received a call. Report the one for Cc1ccc(CN(Cc2ccc(O)c3ncccc23)Cc2ccc(O)c3ncccc23)cc1 .
A. 1

Q. Each compound tested received a call. Report the one for Oc1ccc(CN(Cc2cccs2)Cc2ccc(O)c3ncccc23)c2cccnc12 .
A. 1

Q. Each compound tested received a call. Report the one for Cc1c(C)c2c(c(C)c1O)CCC(C)(COc1ccc(CC3SC(=O)NC3=O)cc1)O2 (stereo not given) .
A. -1

Q. Each compound tested received a call. Report the one for Oc1ccc(CN(Cc2cccc(C(F)(F)F)c2)Cc2ccc(O)c3ncccc23)c2cccnc12 .
A. 1

Now, please, on to the next compound.
Q. Each compound tested received a call. Report the one for Oc1ccc(CN(Cc2ccc(C(F)(F)F)cc2)Cc2ccc(O)c3ncccc23)c2cccnc12 .
A. 1
